Target: Prostaglandin G/H synthase 2 (Homo sapiens)
Sequence (whole entry): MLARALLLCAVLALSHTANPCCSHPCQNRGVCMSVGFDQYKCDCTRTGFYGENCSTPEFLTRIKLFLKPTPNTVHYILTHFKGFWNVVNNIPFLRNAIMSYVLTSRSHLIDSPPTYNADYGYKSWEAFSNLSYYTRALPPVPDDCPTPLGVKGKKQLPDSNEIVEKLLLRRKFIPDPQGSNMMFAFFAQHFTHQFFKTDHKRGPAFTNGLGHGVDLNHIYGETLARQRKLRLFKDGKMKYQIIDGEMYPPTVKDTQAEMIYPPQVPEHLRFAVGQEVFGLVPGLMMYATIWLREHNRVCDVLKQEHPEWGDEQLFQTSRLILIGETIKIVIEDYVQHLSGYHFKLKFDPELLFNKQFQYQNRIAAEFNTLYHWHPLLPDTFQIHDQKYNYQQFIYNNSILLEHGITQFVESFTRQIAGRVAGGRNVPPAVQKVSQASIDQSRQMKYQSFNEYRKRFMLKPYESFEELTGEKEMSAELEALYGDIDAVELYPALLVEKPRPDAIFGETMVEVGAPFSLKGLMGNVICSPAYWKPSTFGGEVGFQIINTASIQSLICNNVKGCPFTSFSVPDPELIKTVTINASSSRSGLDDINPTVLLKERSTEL
Conditions: Blood, at 1 µM
Description: In vitro inhibition of Prostaglandin G/H synthase 2 in human whole blood at 1 uM
quantityMeasured: inhibition (%)

Check out these entries, answers already filled in.
                                   compound  reportedvalue
0  COC1(c2cc(-c3ccc(S(C)(=O)=O)cc3)n(-c3ccc(C(F)(F)F)cc3)n2)CCCO1 (configuration not stated)             25
1  COC1(c2cc(-c3ccc(S(C)(=O)=O)cc3)n(-c3ccc(Cl)cc3)n2)CCCO1 (configuration not stated)             25
2  COC1(c2cc(-c3ccc(S(C)(=O)=O)cc3)n(-c3ccc(F)cc3)n2)CCCO1 (configuration not stated)             40
3  COC1(c2cc(-c3ccc(S(C)(=O)=O)cc3)n(-c3ccccc3)n2)CCCO1 (configuration not stated)             30

1: COC1(c2cc(-c3ccc(S(C)(=O)=O)cc3)n(-c3ccc(C#N)cc3)n2)CCCO1 (configuration not stated)
2: COC1(c2cc(-c3ccc(S(C)(=O)=O)cc3)n(-c3ccc(Br)cc3)n2)CCCO1 (configuration not stated)
3: COC1(c2cc(-c3ccc(S(C)(=O)=O)cc3)n(-c3ccc(C)cc3)n2)CCCO1 (configuration not stated)
q: Rank the 3 compounds: largest inhibition first, smallest last. Kindly provide the labels arranged according to the requested ordering.
a: 3, 1, 2
(3: 55%, 1: 30%, 2: 13%)
